- TEST_TARGET: T1, hCD112R mFC recombinant protein (human; murine, UniProt Q6DKI7 41-160)
- T1 construct: range 41-160; expressed in 293E cells; also called hCD112R ECD mFC; hCD112R-ECD-mFC; not shown: murine IgG2a Fc domain (MX2-mFc vector)
- T1 sequence (looked up): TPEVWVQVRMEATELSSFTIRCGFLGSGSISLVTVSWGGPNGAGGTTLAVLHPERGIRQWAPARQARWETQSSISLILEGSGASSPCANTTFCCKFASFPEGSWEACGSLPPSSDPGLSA
- PROCEDURE_SUMMARY: ELISA, coated hCD112R-ECD-mFC; EC50 COM701/EC50 antibody
PARAMETER_MEASURED: Relative activity (%)
API: value field is a number in %; no unit string.

Some solved entries appear below for comparison.
What the record says about Hu12 (antibody, IgG4, V domains shown, humanized IgG4) VH: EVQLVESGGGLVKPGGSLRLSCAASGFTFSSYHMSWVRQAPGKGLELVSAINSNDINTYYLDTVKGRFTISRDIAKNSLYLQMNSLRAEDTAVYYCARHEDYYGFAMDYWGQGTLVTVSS VL: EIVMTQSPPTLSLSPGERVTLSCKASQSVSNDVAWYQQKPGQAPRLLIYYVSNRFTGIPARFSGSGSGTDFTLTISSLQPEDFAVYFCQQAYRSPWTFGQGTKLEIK : Relative activity (%) is 136

What the record says about Hu25 (antibody, IgG4, V domains shown, humanized IgG4) VH: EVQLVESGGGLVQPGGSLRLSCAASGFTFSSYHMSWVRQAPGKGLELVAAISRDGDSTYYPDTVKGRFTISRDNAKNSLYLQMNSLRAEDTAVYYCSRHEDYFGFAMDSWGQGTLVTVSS VL: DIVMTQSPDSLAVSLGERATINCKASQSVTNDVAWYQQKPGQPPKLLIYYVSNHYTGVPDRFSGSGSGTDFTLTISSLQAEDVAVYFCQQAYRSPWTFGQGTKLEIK : Relative activity (%) is 165

What the record says about Hu31 (antibody, IgG4, V domains shown, humanized IgG4) VH: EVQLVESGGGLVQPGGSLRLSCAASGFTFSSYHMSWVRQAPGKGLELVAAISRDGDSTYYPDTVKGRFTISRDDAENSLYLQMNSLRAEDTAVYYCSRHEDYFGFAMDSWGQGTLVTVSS VL: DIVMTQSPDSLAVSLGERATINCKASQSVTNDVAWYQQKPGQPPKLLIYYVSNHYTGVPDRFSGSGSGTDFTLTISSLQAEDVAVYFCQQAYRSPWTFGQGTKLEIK : Relative activity (%) is 179

What the record says about Hu56 (antibody, IgG4, V domains shown, humanized IgG4) VH: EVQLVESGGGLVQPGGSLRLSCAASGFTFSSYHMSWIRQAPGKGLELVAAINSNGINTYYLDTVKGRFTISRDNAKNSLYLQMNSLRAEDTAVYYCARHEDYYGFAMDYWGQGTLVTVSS VL: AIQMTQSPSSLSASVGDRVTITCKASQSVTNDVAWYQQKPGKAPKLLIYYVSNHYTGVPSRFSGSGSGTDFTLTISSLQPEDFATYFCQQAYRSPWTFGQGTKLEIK : Relative activity (%) is 193

What the record says about Hu50 (antibody, IgG4, V domains shown, humanized IgG4) VH: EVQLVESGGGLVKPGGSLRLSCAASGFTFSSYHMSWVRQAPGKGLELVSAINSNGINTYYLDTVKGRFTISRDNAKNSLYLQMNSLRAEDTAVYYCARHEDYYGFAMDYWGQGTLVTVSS VL: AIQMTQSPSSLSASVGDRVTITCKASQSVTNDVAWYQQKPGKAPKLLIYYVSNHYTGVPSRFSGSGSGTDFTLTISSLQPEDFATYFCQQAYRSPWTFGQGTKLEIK : Relative activity (%) is 190

What the record says about Hu9 (antibody, IgG4, V domains shown, humanized IgG4; also called Hu-09) VH: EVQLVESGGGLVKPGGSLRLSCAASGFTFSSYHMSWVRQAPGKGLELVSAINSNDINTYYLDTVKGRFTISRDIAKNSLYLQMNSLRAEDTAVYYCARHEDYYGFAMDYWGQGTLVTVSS VL: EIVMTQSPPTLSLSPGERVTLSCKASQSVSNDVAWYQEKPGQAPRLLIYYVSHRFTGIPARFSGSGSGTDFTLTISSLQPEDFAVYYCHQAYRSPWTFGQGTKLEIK : Relative activity (%) is 114

What the record says about Hu55 (antibody, IgG4, V domains shown, humanized IgG4) VH: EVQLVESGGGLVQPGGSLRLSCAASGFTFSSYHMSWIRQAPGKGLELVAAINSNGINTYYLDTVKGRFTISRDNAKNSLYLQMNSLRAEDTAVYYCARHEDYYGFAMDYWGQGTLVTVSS VL: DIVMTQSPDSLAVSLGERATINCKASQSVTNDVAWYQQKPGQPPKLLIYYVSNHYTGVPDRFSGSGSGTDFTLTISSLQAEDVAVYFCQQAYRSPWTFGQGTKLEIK : Relative activity (%) is 166

What the record says about Hu21 (antibody, IgG4, V domains shown, humanized IgG4) VH: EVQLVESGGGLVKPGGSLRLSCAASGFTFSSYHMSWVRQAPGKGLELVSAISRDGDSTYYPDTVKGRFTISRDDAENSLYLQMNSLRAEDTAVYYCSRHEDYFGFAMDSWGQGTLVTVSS VL: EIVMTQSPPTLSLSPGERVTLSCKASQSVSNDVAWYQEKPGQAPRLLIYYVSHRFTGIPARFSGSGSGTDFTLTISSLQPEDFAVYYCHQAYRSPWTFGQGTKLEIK : Relative activity (%) is 229

What the record says about Hu18 (antibody, IgG4, V domains shown, humanized IgG4) VH: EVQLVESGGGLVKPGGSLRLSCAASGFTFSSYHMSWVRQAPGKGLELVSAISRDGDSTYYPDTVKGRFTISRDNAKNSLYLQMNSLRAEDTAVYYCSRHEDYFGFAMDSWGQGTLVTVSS VL: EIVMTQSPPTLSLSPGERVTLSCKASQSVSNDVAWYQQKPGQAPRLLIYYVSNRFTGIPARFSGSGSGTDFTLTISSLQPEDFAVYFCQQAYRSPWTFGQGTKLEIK : Relative activity (%) is 122

Attention now turns to another entry.
What the record says about Hu1 (antibody, IgG4, V domains shown, humanized IgG4; also called Hu-01) VH: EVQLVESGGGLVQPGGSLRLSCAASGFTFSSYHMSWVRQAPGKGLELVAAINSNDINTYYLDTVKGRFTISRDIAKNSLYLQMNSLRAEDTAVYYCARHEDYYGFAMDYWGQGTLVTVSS VL: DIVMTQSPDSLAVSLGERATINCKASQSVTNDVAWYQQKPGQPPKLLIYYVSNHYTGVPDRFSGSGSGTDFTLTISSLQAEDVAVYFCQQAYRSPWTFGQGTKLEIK : Relative activity (%) is 154
